assayed.target: T1, PRPF40A WW12 (tandem WW domains, residues 141-236) (human, UniProt O75400 141-236)
T1 construct: A few vector residues probably remain at the N-terminus after TEV cleavage (pETM11, NcoI site); 15N-labelled in the NMR experiments; also called PRPF40A WW tandem; WW12 wt; source: E. coli BL21(DE3), purified (Ni-NTA, TEV digestion, reverse Ni-NTA, SEC); not shown: His6, N-terminal, cleaved
T1 sequence (O75400 141-236): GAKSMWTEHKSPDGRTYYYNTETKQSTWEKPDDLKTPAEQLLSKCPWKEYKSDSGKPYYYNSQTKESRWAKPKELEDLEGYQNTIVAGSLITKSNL
experiment.summary: ITC; GB1-peptide or GB1-SF1 construct in the cell, PRPF40A WW12 in the syringe (as shown in Supplementary Figures 7 and 16A); 25 °C, 20 mM sodium phosphate pH 6.5, 100 mM NaCl; one-site binding model; at least duplicates; affinities apparent
experimental.setup: both partners purified
Listed binders paired with reported pKd
Answer as the number alone; pKd is minus log10 of concentration in mol/L.

[[record]]
binder = "PPPPPPPPPPPPPPPPPPPPPPPPP [GB1-polyproline peptide P25]"
measurement = 4.97


q: // returns reported pKd for input PPPPPPPPPPPPPPPPPPPPPPPPPPPPP [GB1-polyproline peptide P29]
a: 5.04

q: // returns reported pKd for input GMMYAPPPPPPPPMDPSNFVTMMGMGVAGMPPFGMPPAPPPPPPQN (domain or fragment, UniProt Q15637 594-639, looked up, splicing factor 1 (SF1), residues 594-639 of the proline-rich C-terminal region; His6-GB1-TEV site cassette of the pET24 vector, not cleaved; source: E. coli BL21(DE3), purified (Ni-NTA, SEC); not shown: GB1, N-terminal, kept) [GB1-SF1 Pro D (residues 594-639)]
a: 5.00
